Each record here notes measured Onset time.
System: New Zealand white rabbits
ASSAY: Experiment on muscle relaxation in anesthetized rabbits (TOF neuromuscular transmission monitor)
Format: in vivo, rabbit
DETAILS: TOF=0, after i.v. 2× ED95 equivalent dose, N = 8
Description: Male New Zealand white rabbits weighing 2-3.5 kg were used as experimental animals for muscle relaxation test. The specific procedures were: propofol emulsion was intravenously administrated to induce and maintain general anesthesia (induction dose: 10 mg/kg; maintenance dose: […]). Tracheal intubation was carried out and respiratory support was used.

C[N+](CCOC(=O)OCOC(=O)C[N+]1(Cc2ccc([N+](=O)[O-])cc2)CCCCC1)(Cc1ccccc1)Cc1ccc([N+](=O)[O-])cc1 (stereo not drawn): <40 s
C[N+](CCOC(=O)OCOC(=O)CCC[N+]1(Cc2ccc([N+](=O)[O-])cc2)CCCCC1)(Cc1ccc([N+](=O)[O-])cc1)Cc1ccc([N+](=O)[O-])cc1: <40 s

Let's switch to this molecule now.
Exercise: # value lookup — system New Zealand white rabbits, readout Onset time, item C[N+](CCOC(=O)OCOC(=O)CCC[N+]1(Cc2ccc([N+](=O)[O-])cc2)CCCCC1)(Cc1ccc(C#N)cc1)Cc1ccc([N+](=O)[O-])cc1 (stereo not drawn)
Key: <40 s

====

Test system: New Zealand white rabbits
ASSAY: Experiment on muscle relaxation in anesthetized rabbits (TOF neuromuscular transmission monitor)
Type: in vivo, rabbit
DETAILS: TOF=90%, after i.v. 2× ED95 equivalent dose, N = 8
READOUT: Recovery time (min)
Report the figure in min without appending any unit label.

C[N+](CCOC(=O)OCOC(=O)CCC[N+]1(Cc2ccc([N+](=O)[O-])cc2)CCCCC1)(Cc1ccc(-c2ccccc2)cc1)Cc1ccc([N+](=O)[O-])cc1 (stereo not drawn): 7.7
C[N+](CCOC(=O)OCOC(=O)CCC[N+]1(Cc2ccc(C(F)(F)F)cc2)CCCCC1)(Cc1ccccc1)Cc1ccc([N+](=O)[O-])cc1 (stereo not drawn): 6.2

Moving on to another molecule below.
Exercise: Looking for the measured Recovery time of C[N+](CCCCOC(=O)OCOC(=O)C[N+]1(Cc2ccc([N+](=O)[O-])cc2)CCCCC1)(Cc1ccccc1)Cc1ccc([N+](=O)[O-])cc1 (stereo not drawn) , can you help?
Key: 5.2

====

Tested on: New Zealand white rabbits
ASSAY: Experiment on muscle relaxation in anesthetized rabbits (TOF neuromuscular transmission monitor)
Type: in vivo, rabbit
DETAILS: TOF=90%, after i.v. 2× ED95 equivalent dose, N = 8
Assign yes to entries whose Recovery time meets or exceeds 7 min; assign no to the rest.

Solved cases below.
C[N+](CCOC(=O)OCOC(=O)CCC[N+]1(Cc2ccc([N+](=O)[O-])cc2)CCCCC1)(Cc1ccc([N+](=O)[O-])cc1)Cc1ccc(C(F)(F)F)cc1 (centres unmarked) [Compound 9]: no
COc1ccc(C[C@@H]2c3cc(OC)c(OC)cc3CC[N@+]2(C)CCC(=O)OCCCCCOC(=O)CC[N@@+]2(C)CCc3cc(OC)c(OC)cc3[C@H]2Cc2ccc(OC)c(OC)c2)cc1OC [Cisatracurium, reference compound]: yes

Then there is this compound:
Exercise: Does the compound C[N+](CCOC(=O)OCOC(=O)CCC[N+]1(Cc2ccc([N+](=O)[O-])cc2)CCCCC1)(Cc1ccc(Cl)cc1)Cc1ccc([N+](=O)[O-])cc1 (centres unmarked) [Compound 4] have recorded Recovery time that is 7 min or more?
Key: no
